Below: a set of entries, each annotated with reported GI50.
# Test system: human colon cancer cell line HT29
# experimentalProtocol: Inhibition of cell proliferation (GI50) in HT29 cells
# Assay type: cell-based
# details: HT-29, Table III, 48 h
Numbers only; they are read as µM.

{"structure": "COc1ccc(OC)c(Nc2nc(C)nc3ccsc23)c1", "GI50 / µM": 3.55}

Query compound follows.
Record summary for "COc1ccc(OC)c(Nc2ncnc3ccsc23)c1" : reported GI50 = 3.63

----------
# System: human breast cancer cell line T-47D
# experimentalProtocol: Inhibition of cell proliferation (GI50, CellTiter-Glo) in T-47D cells
# Assay type: cell-based
# details: Table III, T47D cells, 48 h, read-out: GI50 in Cancer Cells T47D
Structures can show the parent of a compound that is named as a salt.
Below: a set of entries, each annotated with reported GI50.
Numbers only; they are read as nM.

Examples from the recorded data:
{"compound": "COc1ccc(OC)c(Nc2nc(C)nc3ccsc23)c1 [Example 1]", "unitDescriptor": "nM", "GI50": 80}
{"compound": "COc1ccc(OC)c(Nc2ncnc3ccsc23)c1 [Example 2]", "unitDescriptor": "nM", "GI50": 65}

Record summary for COc1ccc(OC)c(Nc2ncnc3sccc23)c1 [Example 5, hydrochloride] : reported GI50 = 200
